target: T1, mouse glucagon receptor (mouse, UniProt Q61606 27-485); assay: I-125-Gcg competition SPA, membranes of 293HEK cells expressing mGcg-R
T1 construct: whole, on cells; Used as membranes of a clonal 293HEK line; also called mGcg-R; mGcgR
T1 sequence (Q61606 27-485): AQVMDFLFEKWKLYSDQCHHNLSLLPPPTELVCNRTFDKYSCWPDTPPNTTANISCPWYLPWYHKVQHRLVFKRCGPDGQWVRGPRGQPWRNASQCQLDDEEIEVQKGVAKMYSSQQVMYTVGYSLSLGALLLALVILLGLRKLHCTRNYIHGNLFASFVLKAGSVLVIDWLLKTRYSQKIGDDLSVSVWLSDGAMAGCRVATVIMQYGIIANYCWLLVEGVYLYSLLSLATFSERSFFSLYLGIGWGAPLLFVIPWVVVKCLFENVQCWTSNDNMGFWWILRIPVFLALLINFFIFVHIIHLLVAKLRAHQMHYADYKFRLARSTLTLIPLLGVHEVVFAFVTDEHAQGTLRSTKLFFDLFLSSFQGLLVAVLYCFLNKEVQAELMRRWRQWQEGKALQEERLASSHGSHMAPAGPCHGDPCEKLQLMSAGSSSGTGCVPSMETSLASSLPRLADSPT

[
  {
    "BINDER": "YXQGTFTSDYSKYLDXKKAXEFVEWLLETGPSSGAPPPS (Aib at positions 2 and 16; K20 epsilon-amino group conjugated with ([2-(2-Amino-ethoxy)-ethoxy]-acetyl)2-(γGlu)2-CO-(CH2)16-CO2H; C-terminal primary amide) [Example 1]",
    "Ki, nM": 1.92
  },
  {
    "BINDER": "YXQGTFTSDYSKYLDXKKAXEFVAWLLEE (Aib at positions 2 and 16; K20 epsilon-amino group conjugated with ([2-(2-Amino-ethoxy)-ethoxy]-acetyl)2-(γGlu)1-CO-(CH2)16-CO2H; C-terminal acid) [Example 6]",
    "Ki, nM": 0.123
  },
  {
    "BINDER": "YXQGTFTSDYSKYLDXKKAXEFVAWLLEE (Aib at positions 2 and 16; K20 epsilon-amino group conjugated with ([2-(2-Amino-ethoxy)-ethoxy]-acetyl)2-(γGlu)1-CO-(CH2)18-CO2H; C-terminal acid) [Example 7]",
    "Ki, nM": 0.753
  },
  {
    "BINDER": "YXQGTFTSDYSKYLDXKKAXEFVEWLLETGPSSGAPPPS (Aib at positions 2 and 16; K20 epsilon-amino group conjugated with ([2-(2-Amino-ethoxy)-ethoxy]-acetyl)2-(γGlu)2-CO-(CH2)18-CO2H; C-terminal primary amide) [Example 2]",
    "Ki, nM": 0.991
  },
  {
    "BINDER": "YXQGTFLSDYSKYLDXKKAXEFVEWLLETGPSSGAPPPS (Aib at positions 2 and 16; K20 epsilon-amino group conjugated with ([2-(2-Amino-ethoxy)-ethoxy]-acetyl)2-(γGlu)2-CO-(CH2)16-CO2H; C-terminal primary amide) [Example 3]",
    "Ki, nM": 0.174
  }
]
